experimental-target: MEK1 (Homo sapiens, UniProt Q02750)
Construct: N-terminal His-tagged recombinant human full length protein; purchased Invitrogen PV3303; host or cells: insect cells
Sequence (Q02750 whole entry): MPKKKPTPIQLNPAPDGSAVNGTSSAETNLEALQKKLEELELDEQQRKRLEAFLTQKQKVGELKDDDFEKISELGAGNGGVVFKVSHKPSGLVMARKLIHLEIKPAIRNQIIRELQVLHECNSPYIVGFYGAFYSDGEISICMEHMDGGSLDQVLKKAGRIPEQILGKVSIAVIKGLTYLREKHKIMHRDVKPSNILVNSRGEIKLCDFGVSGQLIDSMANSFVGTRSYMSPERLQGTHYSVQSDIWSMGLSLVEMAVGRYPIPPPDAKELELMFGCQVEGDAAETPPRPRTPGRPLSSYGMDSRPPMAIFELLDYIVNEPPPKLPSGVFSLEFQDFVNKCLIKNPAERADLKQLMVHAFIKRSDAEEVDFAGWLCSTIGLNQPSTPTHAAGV
experiment-notes: MEK Inhibition Assay-1 (Example 2): 33P-ATP, P81 filter-binding kinase assay
test-context: Table 7, compounds of formula (I); Example 2; read-out: Assay 1: biochemical MEK IC50
Procedure: The following procedure can be used to measure biochemical activity. MEK1 inhibitory activity of compounds were tested using the following procedure. […] Nat Biotechnoi 2011, 29(11), 1039-45. […] The substrate was prepared in freshly prepared Reaction Buffer. […] Kinase activity was detected by P81 filter-binding method.
pIC50: −log10 of the molar value.
value-kind: pIC50

Record CONC(=O)c1ccc(C#N)cc1Nc1ccc(I)cc1F , field pIC50: 5.82 to 6.82

Lookup result for CCCONC(=O)c1ccc(C#N)cc1Nc1ccc(I)cc1F ; measured pIC50: 5.82 to 6.82

pIC50 in this record for N#Cc1ccc(C(=O)NOCCO)c(Nc2ccc(I)cc2F)c1 : ≥ 6.82

# pIC50 (compound: N#Cc1ccc(C(=O)NOCC2CC2)c(Nc2ccc(I)cc2F)c1F ) is ≥ 6.82

Lab note: N#Cc1ccc(C(=O)NOCCO)c(Nc2ccc(I)cc2F)c1F gave pIC50 of ≥ 6.82

CCONC(=O)c1ccc(C#N)cc1Nc1ccc(I)cc1F yielded pIC50 of ≥ 6.82

====

experimental-target: MEK1 (Homo sapiens)
Construct: N-terminal His-tagged recombinant human full length protein; purchased Invitrogen PV3303; host or cells: insect cells
experiment-notes: MEK Inhibition Assay-1 (Example 2): 33P-ATP, P81 filter-binding kinase assay
test-context: Table 8, compounds of formula (II); tested by Example 2; read-out: Assay 1: biochemical MEK IC50
value-kind: IC50 (nM)
Just the number in nM, nothing appended.

For Cn1c(Nc2ccc(I)cc2F)c(C(=O)NOC[C@@H](O)CO)c2cccnc21 [Compound 2.006] on MEK1 (Homo sapiens), measured IC50 was 371

====

Kindly supply the reported pIC50 values for the records listed here.
pIC50: −log10 of the molar value.

Record O=c1c2c(Nc3ccc(I)cc3F)cncc2ccn1C[C@H](O)CO / UniProtKB Q02750, pIC50 recorded as ≥ 6.82

So the reported pIC50 for CCONC(=O)c1ccc(C#N)cc1Nc1ccc(I)cc1F , on UniProtKB Q02750, turned out to be 5.82 to 6.82

GET /values?item= N#Cc1ccc(C(=O)NO)c(Nc2ccc(I)cc2F)c1 &system= UniProtKB Q02750 returns pIC50: ≥ 6.82

The observed pIC50 for CC(=O)c1sc(Nc2ccc(I)cc2F)c(C(=O)NC[C@@H](O)CO)c1C when tested with UniProtKB Q02750 stands at 5.82 to 6.82

Case N#Cc1ccc(C(=O)NOCCN)c(Nc2ccc(I)cc2F)c1 , UniProtKB Q02750, pIC50 recorded as 5.82 to 6.82

// molecule N#Cc1ccc(C(=O)NOCCO)c(Nc2ccc(I)cc2F)c1 , assay UniProtKB Q02750, pIC50 value: ≥ 6.82

The observed pIC50 for N#Cc1ccc(C(=O)N2CC(O)C2)c(Nc2ccc(I)cc2F)c1 when tested with UniProtKB Q02750 stands at < 5.82

I looked up O=C(O)Cn1ccc2cncc(Nc3ccc(I)cc3F)c2c1=O and its pIC50 for UniProtKB Q02750 was < 5.82

Note to self: pIC50 of N#Cc1ccc(C(=O)NOCC2CC2)c(Nc2ccc(I)cc2F)c1F with UniProtKB Q02750 was ≥ 6.82

pIC50 of COC(=O)CCONC(=O)c1ccc(C#N)cc1Nc1ccc(I)cc1F , assay on UniProtKB Q02750, is < 5.82

Response field pIC50 (UniProtKB Q02750) for item O=c1c2c(Nc3ccc(I)cc3F)cncc2ccn1OCCO : 5.82 to 6.82

====

Answer each item with its documented IC50.
experimental-target: MEK1 (Homo sapiens)
Construct: N-terminal His-tagged recombinant human full length protein; purchased Invitrogen PV3303; host or cells: insect cells
experiment-notes: MEK Inhibition Assay-1 (Example 2): 33P-ATP, P81 filter-binding kinase assay
test-context: Table 10, compounds of formula (IV); Example 2; read-out: Assay 1: biochemical MEK IC50

Item CC(=O)c1sc(Nc2ccc(I)cc2F)c(C(=O)NCC(C)(C)N)c1C ; assay system MEK1 (Homo sapiens); IC50 reported as 1000 to 5000 nM

Bench note, MEK1 (Homo sapiens): O=C1CCCc2c1sc(Nc1ccc(I)cc1F)c2C(=O)NOCC1CC1 , IC50 reads ≤ 500 nM

Query CC(=O)c1sc(Nc2ccc(I)cc2F)c(C(=O)NOCC2CC2)c1C on MEK1 (Homo sapiens); IC50 returned: ≤ 500 nM

Short answer on MEK1 (Homo sapiens) for CC(=O)c1sc(Nc2ccc(I)cc2F)c(C(=O)N2CC[C@@H](N)C2)c1C , IC50: 5000 to 10000 nM

The observed IC50 for O=C1CCCc2c1sc(Nc1ccc(I)cc1F)c2C(=O)NOCCO when tested with MEK1 (Homo sapiens) stands at ≤ 500 nM

Record CC(=O)c1sc(Nc2ccc(I)cc2F)c(C(=O)N[C@@H]2CCCNC2)c1C ; system MEK1 (Homo sapiens); IC50 = 500 to 1000 nM

Measured IC50 (MEK1 (Homo sapiens)), entry CC(=O)c1sc(Nc2ccc(I)cc2F)c(C(=O)NOCCO)c1C : ≤ 500 nM

CC(=O)c1sc(Nc2ccc(I)cc2F)c(C(=O)N[C@@H]2CCNC2)c1C on MEK1 (Homo sapiens) gives IC50 = 500 to 1000 nM

Observed IC50 on MEK1 (Homo sapiens), entry CONC(=O)c1c(Nc2ccc(I)cc2F)sc(C(C)=O)c1C , equals 500 to 1000 nM

Item CCONC(=O)c1c(Nc2ccc(I)cc2F)sc(C(C)=O)c1C ; assay system MEK1 (Homo sapiens); IC50 reported as ≤ 500 nM
